test system: PPARg:RXRa 30nM:10nM, anti-RXR (NR concentration 30 nM, RXRa partner concentration 10 nM); experiment: PBM binding z-score (relative to random genomic background probes); higher = stronger binding; sequences stand for … in GC…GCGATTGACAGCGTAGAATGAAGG
Measured metric: PBM binding z-score

GATACAGGGTCAGCTAGAGGCCAGATTATGGAAA ... 0.899
TCTATTATTTGAAGGGCAACCGACGAGTCCGTTT ... 4.08
ATCGAAAGCTCGACGAGGTGAGTATACACCGTTT ... 0.105
CCTACTGGGCCATCAGGTCAGTGATATCAACGTT ... 0.364
TAGCCTAGGTCATGCGGGCCAGTGTAGTGTCGGC ... -0.122
GCGACTGGGGCATCAGCAGGTCACCATAACTTAA ... 0.0296
TCATATAGGTAAAGGTGAATGTCGAACGATATGA ... 4.36
ACCGAAAGGTCGACGAGGTGAGTATACACCGTTT ... 0.781
TCATATAGGTAAAAAGTGAAAGTCGGTGTGGTAA ... 5.22
ACTCGGAGGACAAAGGTCAGAGCGACGCCAGTGA ... 5.06
ACAGACAGGTGATGAAGGTAACACAGGCTATCAT ... 0.205
CCTACTGGGCCATCAGGTCTTTGATATCAACGTT ... 0.0943
AGAATGAGGTTACCAAAGATCCGGGAAACGCTTG ... 0.971
CAAACTATGTCACGAAAGGTCAAAGTCGAATGAC ... 3.01
CGTCAAAGTCCAACTAAGGTAACGTAAAGCACGC ... -0.0174
ATATGAAGGTTAGCTGGGGTCATTCAGACTAGGC ... 1.14
GCATATAGGTAATCCAAGGTGAAAGTCCGATTGT ... 0.358
TCGAGTAGGGTAGTCGGGGCATTCAGCCAACATA ... 0.525
GCTTGTAGATCAAGGTTAAGAACGACTAAGCTAA ... 0.429
GGAACGCGGGCAAGTTGATAGCAGAGTTTGATGG ... -0.573
CCTTACGGGTCACTCCAGGTTATTGCATCGGAGT ... 1.08
TCGAGTAGGCTAGTCGGGGCATTCAGCCAACATA ... 0.911
TCGAGAAGGTTAGTCGGGGCATTCAGCCAACATA ... 1.72
TAGCCTAGGTCATTGGGCCAGTAAAGTACGCATC ... 1.14
ACTAGCAGGCCAAGCTTGGGTCACTCAAACAAAG ... -0.684
AATACAGGGTCAGTAGGCCAGAGTAGGTACGAAT ... 1.93
